All values here come from paper PMC9482650.

tested_target: T1, HTRA4, P83105
T1 sequence (P83105 378-476, limits assumed, looked up): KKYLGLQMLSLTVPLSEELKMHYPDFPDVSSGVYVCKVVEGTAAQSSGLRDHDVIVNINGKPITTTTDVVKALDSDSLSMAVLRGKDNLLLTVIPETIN
assay_details: holdup assay
Design: key: below the threshold = too weak to quantify, mostly under pKd 3.1 to 4
condition_description: plain residues with an end cap or a label only (N-terminal biotin on a linker: ado-ado)
assay_metric: pKd

- TKGPRGPTRV [SAPCD1, Q5SSQ6]: 3.96
- DDPSTAETVL [ABCA7, Q8IZY2]: below the threshold
- NHSSSPETTA [TRMT13, Q9NUP7]: below the threshold
- SARSRLSSNL [HCN2, Q9UL51]: below the threshold
